The origin of these recorded values is ChEMBL document CHEMBL3526104.

assay: AUC (0 to t) in healthy human at 150 mg, po administered as single dose
Assay type: ADME, organism-based
Parameters: dosed compound name Casopitant
assay.context: plasma
value.type: AUC(0-t)

Query: Consider the compound CC(=O)N1CCN([C@H]2CCN(C(=O)N(C)[C@H](C)c3cc(C(F)(F)F)cc(C(F)(F)F)c3)[C@@H](c3ccc(F)cc3C)C2)CC1 and give its recorded AUC(0-t).
Reply: 6570 ng·h/mL

====

assay: Tmax in healthy human at 100 mg, po administered as single dose on day 4 and cotreated with ketoconazole at 400 mg, po qd on day 1 to 7
Type: ADME, organism-based
Parameters: dosed compound name Casopitant
assay.context: in vivo
value.type: Tmax (h)
Numeric answer only, unit h assumed.

Query: Give the reported Tmax for this compound. CC(=O)N1CCN([C@H]2CCN(C(=O)N(C)[C@H](C)c3cc(C(F)(F)F)cc(C(F)(F)F)c3)[C@@H](c3ccc(F)cc3C)C2)CC1
Reply: 2

====

assay: Unbound fraction in human plasma
Format: ADME, cell-free
value.type: fraction unbound
Give the figure only, with no unit attached.

Query: Using the record for CC(=O)N1CCN([C@H]2CCN(C(=O)N(C)[C@H](C)c3cc(C(F)(F)F)cc(C(F)(F)F)c3)[C@@H](c3ccc(F)cc3C)C2)CC1 , state its measured fraction unbound.
Reply: 0.005

====

assay: Tmax in healthy human at 150 mg, po administered as single dose
Type: ADME, organism-based
Design: dosed compound name Casopitant
assay.context: in vivo
value.type: Tmax

Query: Output measured Tmax for this item: CC(=O)N1CCN([C@H]2CCN(C(=O)N(C)[C@H](C)c3cc(C(F)(F)F)cc(C(F)(F)F)c3)[C@@H](c3ccc(F)cc3C)C2)CC1 [CASOPITANT]
Reply: 1.25 h

====

assay: Volume of distribution at steady state in human
Assay type: ADME, organism-based
Design: dosed compound name Casopitant
assay.context: in vivo, read-out: Vdss
value.type: Vd (L/kg)
# value in L/kg; strip the unit string

Query: Determine its reported Vd: CC(=O)N1CCN([C@H]2CCN(C(=O)N(C)[C@H](C)c3cc(C(F)(F)F)cc(C(F)(F)F)c3)[C@@H](c3ccc(F)cc3C)C2)CC1
Reply: 2.58
